assaySystem: CquiOBP2 (Culex quinquefasciatus, UniProt C7BDZ6)
Sequence (C7BDZ6 entry or part of it): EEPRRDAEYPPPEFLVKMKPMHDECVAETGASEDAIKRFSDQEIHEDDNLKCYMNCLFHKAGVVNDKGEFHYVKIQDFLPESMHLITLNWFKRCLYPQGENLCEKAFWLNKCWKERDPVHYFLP
measurementNotes: biochemical
Format: binding
testContext: CquiOBP2; residual NPN fluorescence, normalized to 100 prior to ligand; screen at 2–20 μM ligand
Catalogue of compounds with associated Int (fluorescence emission)

Worked set:
# compound, valueKind, recordedValue
records = [
    ("Cc1cc(C)cc(O)c1", "Int (fluorescence emission)", 40),
    ("O=C1CCCCC1", "Int (fluorescence emission)", 86),
]

Next compound, Int (fluorescence emission) to be filled in.
Asked: Item CCCCCC(O)CC (centres unmarked) has what recorded Int (fluorescence emission)?
Given back: 78

---

Catalogue of compounds with associated Int (fluorescence emission)
assaySystem: CquiOBP2 (Culex quinquefasciatus, UniProt C7BDZ6)
measurementNotes: biochemical
Format: binding
testContext: CquiOBP2; residual NPN fluorescence, normalized to 100 prior to ligand; screen at 2–20 μM ligand
Procedure: Binding affinity (Ban et al., [2002]) was tested with a panel of 34 compounds, including attractants, a mosquito oviposition pheromone, repellents, terpenoids and other putative mosquito attractants or repellents. […] Fluorescence spectra were recorded in a right angle configuration on a spectrofluorimeter (RF-5301, Shimadzu, Kyoto, Japan) at room temperature using a 1 cm light path fluorimeter quartz cuvette. […]
Form field (numeric): enter value without unit.

Worked set:
# compound, Int (fluorescence emission)
records = [
    ("C=CC(O)CCCCC (centres unmarked)", 93),
    ("C=CC1(C)CCC(C(C)(C)O)O1 (centres unmarked) [Linalool oxide, linalool oxide]", 95),
    ("c1ccc2[nH]ccc2c1", 87),
    ("CC12CCC(C1)C(C)(C)C2=O (centres unmarked)", 87),
    ("Cc1ccc(O)cc1", 85),
]

Asked: Item CC12CCC(CC1)C(C)(C)O2 has what recorded Int (fluorescence emission)?
Given back: 90

Asked: Item C=CCc1ccc(O)c(OC)c1 has what recorded Int (fluorescence emission)?
Given back: 82

Asked: Item Cc1c[nH]c2ccccc12 has what recorded Int (fluorescence emission)?
Given back: 31

Asked: Item CC1CCC(C(C)(C)O)C(O)C1 (centres unmarked) has what recorded Int (fluorescence emission)?
Given back: 35

Asked: Item CC12CCC(CC1=O)C2(C)C (centres unmarked) has what recorded Int (fluorescence emission)?
Given back: 85

Asked: Item O=Cc1ccccc1 has what recorded Int (fluorescence emission)?
Given back: 91

---

assaySystem: CquiOBP1 (Culex quinquefasciatus)
measurementNotes: biochemical
Format: binding
testContext: CquiOBP1; NPN displacement titration; read-out: IC50
Catalogue of compounds with associated IC50

Worked set:
# compound, IC50
rows = [
    ("C=CCc1ccc(O)c(OC)c1", "> 10 µM"),
    ("COC(=O)c1ccccc1O [Methyl salicylate, methyl salicylate]", "> 10 µM"),
    ("Cc1c[nH]c2ccccc12", "> 10 µM"),
    ("CCCCCCCCC=O", "10.5 µM"),
    ("CCN(CC)C(=O)c1cccc(C)c1 [DEET, N,N-diethyl-3-methylbenzamide]", "> 10 µM"),
    ("CC12CCC(CC1=O)C2(C)C (stereo not shown)", "> 10 µM"),
]

Next compound, IC50 to be filled in.
Asked: Item CCCCCCO has what recorded IC50?
Given back: > 10 µM

---

Catalogue of compounds with associated Int (fluorescence emission)
assaySystem: CquiOBP1 (Culex quinquefasciatus)
measurementNotes: biochemical
Assay type: binding
testContext: CquiOBP1; residual NPN fluorescence, normalized to 100 prior to ligand; screen at 2–20 μM ligand
Procedure: Binding affinity (Ban et al., [2002]) was tested with a panel of 34 compounds, including attractants, a mosquito oviposition pheromone, repellents, terpenoids and other putative mosquito attractants or repellents. […] Fluorescence spectra were recorded in a right angle configuration on a spectrofluorimeter (RF-5301, Shimadzu, Kyoto, Japan) at room temperature using a 1 cm light path fluorimeter quartz cuvette. […]
Form field (numeric): enter value without unit.

Asked: Item CCCCCCCCC=O has what recorded Int (fluorescence emission)?
Given back: 51.4

Asked: Item CCCCCCCCCC[C@H](OC(C)=O)[C@H]1CCCC(=O)O1 [MOP, (5R,6S)-6-acetoxy-5-hexadecanolide] has what recorded Int (fluorescence emission)?
Given back: 48

Asked: Item CC(=O)CCC=C(C)C has what recorded Int (fluorescence emission)?
Given back: 87

---

Catalogue of compounds with associated pIC50
assaySystem: CquiOBP1 (Culex quinquefasciatus, UniProt Q8T6I2)
Sequence (Q8T6I2 entry or part of it): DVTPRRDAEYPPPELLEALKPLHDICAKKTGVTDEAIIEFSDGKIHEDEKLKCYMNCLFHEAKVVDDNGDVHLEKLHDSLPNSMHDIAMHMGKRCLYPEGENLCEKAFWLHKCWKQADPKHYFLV
measurementNotes: biochemical
Format: binding
pIC50: −log10 of the molar value.

Worked set:
# compound, valueKind, recordedValue
rows = [
    ("O=Cc1ccccc1 [Benzaldehyde, benzaldehyde]", "pIC50", "< 5.00"),
    ("CC(C)[C@]12CC(=O)[C@H](C)[C@H]1C2 [Thujone, thujone]", "pIC50", "< 5.00"),
    ("CCOC(=O)Cc1ccccc1 [Ethyl 2-phenylacetate, ethyl 2-phenylacetate]", "pIC50", "< 5.00"),
    ("CCC(C)OC(=O)N1CCCCC1CCO (centres unmarked) [Picaridin]", "pIC50", 4.99),
]

Next compound, pIC50 to be filled in.
Asked: Item CC(=O)CCC=C(C)C [Sulcatone, 6-methyl-5-hepten-2-one] has what recorded pIC50?
Given back: < 5.00

---

assaySystem: CquiOBP2 (Culex quinquefasciatus, UniProt C7BDZ6)
measurementNotes: biochemical
Format: binding
testContext: CquiOBP2; calculated from IC50 of NPN displacement; read-out: Kd
valueKind: Kd

Worked set:
# compound, Kd
measured = [
    ("OCCc1ccccc1", "> 2500 nM"),
    ("C=CC(O)CCCCC (stereo not drawn)", "> 2500 nM"),
]

Asked: Item CCCCCCO has what recorded Kd?
Given back: > 2500 nM

---

assaySystem: CquiOBP2 (Culex quinquefasciatus)
measurementNotes: biochemical
Assay type: binding
testContext: direct titration of CquiOBP2 (10 μg/ml) with NPN; read-out: Kd for NPN
valueKind: pKd
The quantity pKd is defined as the negative base-10 logarithm of the molar concentration.

Asked: Item c1ccc(Nc2cccc3ccccc23)cc1 [NPN, N-phenyl-1-naphthylamine] has what recorded pKd?
Given back: 6.30

---

Catalogue of compounds with associated Kd
assaySystem: CquiOBP5 (Culex quinquefasciatus)
Sequence (C7BDZ9 entry or part of it): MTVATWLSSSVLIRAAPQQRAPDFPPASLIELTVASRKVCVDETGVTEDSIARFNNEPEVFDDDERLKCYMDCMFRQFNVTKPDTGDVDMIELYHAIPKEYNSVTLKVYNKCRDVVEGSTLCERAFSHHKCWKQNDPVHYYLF
measurementNotes: biochemical
Format: binding

Worked set:
# compound, recordedValue
data = [
    ("CC(C)[C@]12CC(=O)[C@H](C)[C@H]1C2 [Thujone, thujone]", "> 7 µM"),
    ("O=Cc1ccccc1 [Benzaldehyde, benzaldehyde]", "> 7 µM"),
]

Asked: Item CCC(C)OC(=O)N1CCCCC1CCO (centres unmarked) [Picaridin] has what recorded Kd?
Given back: 5.6 µM

Asked: Item CC(=O)CCC=C(C)C [Sulcatone, 6-methyl-5-hepten-2-one] has what recorded Kd?
Given back: > 7 µM

Asked: Item CCOC(=O)Cc1ccccc1 [Ethyl 2-phenylacetate, ethyl 2-phenylacetate] has what recorded Kd?
Given back: > 7 µM

---

assaySystem: CquiOBP5 (Culex quinquefasciatus)
measurementNotes: biochemical
Format: binding
testContext: CquiOBP5; calculated from IC50 of NPN displacement; read-out: Kd
pKd: −log10 of the molar value.
valueKind: pKd

Worked set:
# molecule, assaySystem, pKd
records = [
    ("Cc1ccc(O)cc1", "CquiOBP5 (Culex quinquefasciatus)", "< 5.15"),
    ("CCCCCCCCCC[C@H](OC(C)=O)[C@H]1CCCC(=O)O1 [MOP, (5R,6S)-6-acetoxy-5-hexadecanolide]", "CquiOBP5 (Culex quinquefasciatus)", 5.14),
    ("CC12CCC(CC1)C(C)(C)O2", "CquiOBP5 (Culex quinquefasciatus)", "< 5.15"),
    ("CCCCCCO", "CquiOBP5 (Culex quinquefasciatus)", "< 5.15"),
    ("CCN(CC)C(=O)c1cccc(C)c1 [DEET, N,N-diethyl-3-methylbenzamide]", "CquiOBP5 (Culex quinquefasciatus)", "< 5.15"),
]

Next molecule, pKd to be filled in.
Asked: pKd of CCc1ccc(O)cc1 on CquiOBP5 (Culex quinquefasciatus)?
Given back: < 5.15

---

assaySystem: CquiOBP1 (Culex quinquefasciatus)
measurementNotes: biochemical
Format: binding
testContext: CquiOBP1; NPN displacement titration; read-out: IC50
valueKind: IC50

# compound, assaySystem, IC50
records = [
    ("CCc1ccc(O)cc1", "CquiOBP1 (Culex quinquefasciatus)", "> 10 µM"),
    ("CCCCCC(O)CC (stereo not drawn)", "CquiOBP1 (Culex quinquefasciatus)", "> 10 µM"),
    ("CCCCN(CCC(=O)OCC)C(C)=O [IR3535, ethyl 3-[acetyl(butyl)amino]propanoate]", "CquiOBP1 (Culex quinquefasciatus)", "> 10 µM"),
]

Asked: Item CC/C=C\CCOC(C)=O [(Z)-3-Hexenyl acetate, (Z)-3-hexenyl acetate] has what recorded IC50?
Given back: > 10 µM

Asked: Item C#CC(O)CCCCC (stereo not drawn) has what recorded IC50?
Given back: > 10 µM

Asked: Item OCCc1ccccc1 has what recorded IC50?
Given back: > 10 µM

Asked: Item CC12CCC(CC1)C(C)(C)O2 has what recorded IC50?
Given back: > 10 µM

Asked: Item C=CC1(C)CCC(C(C)(C)O)O1 (stereo not drawn) [Linalool oxide, linalool oxide] has what recorded IC50?
Given back: > 10 µM
